- Test system: Streptococcus pyogenes SSI-9
- method.notes: Antibacterial activity assay of bead-derived peptides (three concentrations)
- Assay type: cell-based
- Set-up: key: +++: inhibition by the 640-fold diluted peptide solution; ++: inhibition by the 160-fold diluted solution; +: inhibition by the 40-fold diluted solution; -: no inhibition
- measurement.context: S. pyogenes, bead-derived peptide solution, three concentrations
Where a SMILES comes first, the peptide text is derived from it. [ ]: non-standard residue; d: D form. The star is where a group is joined. NHCH2CH2OH = OCCN*; For = O=C*

molecule: CNC(=O)C[C@@H](NC(=O)[C@@H](NC(=O)[C@H](NC(=O)[C@H](C)NC(=O)[C@@H](CC(C)C)NC(=O)[C@H](C)NC(=O)CNC(=O)[C@@H](NC=O)C(C)C)C(C)C)C(C)C)C(=O)N[C@@H](Cc1c[nH]c2ccccc12)C(=O)N[C@@H](C(=O)N[C@@H](Cc1c[nH]c2ccccc12)C(=O)N[C@H](CC(C)C)C(=O)N[C@@H](Cc1c[nH]c2ccccc12)C(=O)N[C@H](CC(C)C)C(=O)N[C@@H](Cc1c[nH]c2ccccc12)C(=O)NCCO)C(C)C [compound 3584] (For-VGA[dL]A[dV]V[dD](NHMe)W[dV]W[dL]W[dL]W-NHCH2CH2OH)
subject.of.test: Streptococcus pyogenes SSI-9
antibacterial activity: -
--
molecule: CC(C)C[C@@H](NC(=O)[C@H](Cc1c[nH]c2ccccc12)NC(=O)[C@H](NC(=O)[C@H](Cc1c[nH]c2ccccc12)NC(=O)[C@H](NC(=O)[C@@H](NC(=O)[C@H](NC(=O)[C@H](C)NC(=O)[C@H](NC(=O)[C@H](C)NC(=O)CNC(=O)[C@@H](NC=O)C(C)C)[C@H](C)O)C(C)C)C(C)C)C(C)C)[C@H](C)O)C(=O)N[C@@H](Cc1c[nH]c2ccccc12)C(=O)N[C@@H](C(=O)N[C@@H](Cc1c[nH]c2ccccc12)C(=O)NCCO)C(C)C [compound 12629] (For-VGA[dT]A[dV]V[dV]W[dT]W[dL]W[dV]W-NHCH2CH2OH)
subject.of.test: Streptococcus pyogenes SSI-9
antibacterial activity: -

====

- System: Listeria monocytogenes 10403S
- measurement.context: L. monocytogenes
Where a SMILES comes first, the peptide text is derived from it. [ ]: non-standard residue; d: D form. The star is where a group is joined. NHCH2CH2OH = OCCN*; For = O=C*
measure: antibacterial activity/MIC (µg/mL)
The reply should contain only the number, in µg/mL.

molecule: CC(C)C[C@@H](NC(=O)[C@H](C)NC(=O)CNC(=O)[C@@H](NC=O)C(C)C)C(=O)N[C@@H](C)C(=O)N[C@@H](C(=O)N[C@H](C(=O)N[C@@H](C(=O)N[C@@H](Cc1c[nH]c2ccccc12)C(=O)N[C@@H](C(=O)N[C@@H](Cc1c[nH]c2ccccc12)C(=O)N[C@H](CC(C)C)C(=O)N[C@@H](Cc1c[nH]c2ccccc12)C(=O)N[C@@H](C(=O)N[C@@H](Cc1c[nH]c2ccccc12)C(=O)NCCO)C(C)C)C(C)C)C(C)C)C(C)C)C(C)C [B04] (For-VGA[dL]A[dV]V[dV]W[dV]W[dL]W[dV]W-NHCH2CH2OH)
subject.of.test: Listeria monocytogenes 10403S
unit.of.measurement: µg/mL
antibacterial activity/MIC: 8

# next molecule below
Measured antibacterial activity/MIC of CC(C)C[C@@H](NC(=O)[C@H](C)NC(=O)[C@H](NC(=O)[C@H](C)NC(=O)CNC(=O)[C@@H](NC=O)C(C)C)C(C)C)C(=O)N[C@H](C(=O)N[C@@H](C(=O)N[C@@H](Cc1c[nH]c2ccccc12)C(=O)N[C@@H](C(=O)N[C@@H](Cc1c[nH]c2ccccc12)C(=O)N[C@H](CC(C)C)C(=O)N[C@@H](Cc1c[nH]c2ccccc12)C(=O)N[C@H](CC(C)C)C(=O)N[C@@H](Cc1c[nH]c2ccccc12)C(=O)NCCO)C(C)C)C(C)C)C(C)C [B02] (For-VGA[dV]A[dL]V[dV]W[dV]W[dL]W[dL]W-NHCH2CH2OH) : 4

====

- Test system: P388 mouse leukemia cells
- measurement.context: 92 h
Where a SMILES comes first, the peptide text is derived from it. [ ]: non-standard residue; d: D form. The star is where a group is joined. NHCH2CH2OH = OCCN*; For = O=C*
measure: cell viability/%

compound: CNC(=O)C[C@@H](NC(=O)[C@H](C)NC(=O)[C@@H](CC(C)C)NC(=O)[C@H](C)NC(=O)CNC(=O)[C@@H](NC=O)C(C)C)C(=O)N[C@H](C(=O)N[C@@H](C(=O)N[C@@H](Cc1c[nH]c2ccccc12)C(=O)N[C@H](CC(C)C)C(=O)N[C@@H](Cc1c[nH]c2ccccc12)C(=O)N[C@@H](C(=O)N[C@@H](Cc1c[nH]c2ccccc12)C(=O)N[C@H](CC(C)C)C(=O)N[C@@H](Cc1c[nH]c2ccccc12)C(=O)NCCO)C(C)C)C(C)C)C(C)C [compound 8265] (For-VGA[dL]A[dD](NHMe)V[dV]W[dL]W[dV]W[dL]W-NHCH2CH2OH)
subject.of.test: P388 mouse leukemia cells
experimental.value: 68.3%
--
compound: CC(C)C[C@@H](NC(=O)[C@H](Cc1c[nH]c2ccccc12)NC(=O)[C@H](NC(=O)[C@H](Cc1c[nH]c2ccccc12)NC(=O)[C@H](NC(=O)[C@H](Cc1c[nH]c2ccccc12)NC(=O)[C@H](NC(=O)[C@@H](NC(=O)[C@H](NC(=O)[C@H](C)NC(=O)[C@H](NC(=O)[C@H](C)NC(=O)CNC(=O)[C@@H](NC=O)C(C)C)C(C)C)C(C)C)C(C)C)C(C)C)C(C)C)C(C)C)C(=O)N[C@@H](Cc1c[nH]c2ccccc12)C(=O)NCCO [compound 1004] (For-VGA[dV]A[dV]V[dV]W[dV]W[dV]W[dL]W-NHCH2CH2OH)
subject.of.test: P388 mouse leukemia cells
experimental.value: 60.4%
--
compound: CNC(=O)C[C@@H](NC(=O)[C@H](Cc1c[nH]c2ccccc12)NC(=O)[C@@H](CC(C)C)NC(=O)[C@H](Cc1c[nH]c2ccccc12)NC(=O)[C@@H](CC(C)C)NC(=O)[C@H](Cc1c[nH]c2ccccc12)NC(=O)[C@H](NC(=O)[C@@H](NC(=O)[C@H](NC(=O)[C@H](C)NC(=O)[C@@H](CC(C)C)NC(=O)[C@H](C)NC(=O)CNC(=O)[C@@H](NC=O)C(C)C)C(C)C)C(C)C)C(C)C)C(=O)N[C@@H](Cc1c[nH]c2ccccc12)C(=O)NCCO [compound 11422] (For-VGA[dL]A[dV]V[dV]W[dL]W[dL]W[dD](NHMe)W-NHCH2CH2OH)
subject.of.test: P388 mouse leukemia cells
experimental.value: 47.4%

Measured cell viability/% of CNC(=O)C[C@@H](NC(=O)[C@@H](NC(=O)[C@@H](CC(C)C)NC(=O)[C@H](C)NC(=O)[C@H](NC(=O)[C@H](C)NC(=O)CNC(=O)[C@@H](NC=O)C(C)C)C(C)C)C(C)C)C(=O)N[C@@H](Cc1c[nH]c2ccccc12)C(=O)N[C@@H](C(=O)N[C@@H](Cc1c[nH]c2ccccc12)C(=O)N[C@@H](C(=O)N[C@@H](Cc1c[nH]c2ccccc12)C(=O)N[C@@H](C(=O)N[C@@H](Cc1c[nH]c2ccccc12)C(=O)NCCO)C(C)C)C(C)C)C(C)C [compound 12576] (For-VGA[dV]A[dL]V[dD](NHMe)W[dV]W[dV]W[dV]W-NHCH2CH2OH) : 100.0%

====

Below, each entry is listed alongside its reported cell viability/%.
- Tested on: P388 mouse leukemia cells
- measurement.context: 92 h
Where a SMILES comes first, the peptide text is derived from it. [ ]: non-standard residue; d: D form. The star is where a group is joined. NHCH2CH2OH = OCCN*; For = O=C*

compound: CC(C)C[C@@H](NC(=O)[C@H](Cc1c[nH]c2ccccc12)NC(=O)[C@H](NC(=O)[C@H](Cc1c[nH]c2ccccc12)NC(=O)[C@@H](CC(C)C)NC(=O)[C@@H](NC(=O)[C@H](NC(=O)[C@H](C)NC(=O)[C@H](NC(=O)[C@H](C)NC(=O)CNC(=O)[C@@H](NC=O)C(C)C)C(C)C)C(C)C)C(C)C)C(C)C)C(=O)N[C@@H](Cc1c[nH]c2ccccc12)C(=O)N[C@@H](C(=O)N[C@@H](Cc1c[nH]c2ccccc12)C(=O)NCCO)C(C)C [compound 5526] (For-VGA[dV]A[dV]V[dL]W[dV]W[dL]W[dV]W-NHCH2CH2OH)
subject.of.test: P388 mouse leukemia cells
cell viability/%: 100.0%

# next compound below
Measured cell viability/% of CC(C)C[C@@H](NC(=O)[C@H](C)NC(=O)[C@H](NC(=O)[C@H](C)NC(=O)CNC(=O)[C@@H](NC=O)C(C)C)C(C)C)C(=O)N[C@H](C(=O)N[C@H](CC(C)C)C(=O)N[C@@H](Cc1c[nH]c2ccccc12)C(=O)N[C@H](CC(C)C)C(=O)N[C@@H](Cc1c[nH]c2ccccc12)C(=O)N[C@H](CC(C)C)C(=O)N[C@@H](Cc1c[nH]c2ccccc12)C(=O)N[C@@H](C(=O)N[C@@H](Cc1c[nH]c2ccccc12)C(=O)NCCO)[C@H](C)O)C(C)C [compound 3365] (For-VGA[dV]A[dL]V[dL]W[dL]W[dL]W[dT]W-NHCH2CH2OH) : 100.0%
